# System: Es-2
# protocol-description: Primary qHTS to identify gynecologic anti-cancer compounds using libraries of approved drugs and bioactive compounds (AID 1345084); also: nearly all actives have a fitted effect of over 55% in size
# test-settings: Gynecologic cancer cell panel viability, ATPlite luminescence, 48 h; series mostly up to 57.5 µM
Inconclusive results are not listed. Calls of active or inactive are those of the source. Calls follow the shape of the dose curve; as a rule, active = well fitted cell-killing curve with a large enough effect; inconclusive = small, poorly fitted or top-dose-only effect, or effect the other way; inactive = flat fitted curve, though single readings scatter.
// classify into true (1) (active), false (0) (inactive)

Task: Lab log entry: COc1cc(NS(=O)(=O)c2ccc(N)cc2)nc(OC)n1 — outcome as called in the assay?
Output: false (0)

Task: Lab log entry: CN(CCOc1ccc(CC2SC(=O)NC2=O)cc1)c1ccccn1 (stereo unspecified) — outcome as called in the assay?
Output: false (0)

Task: Lab log entry: O=P(O)(O)C(O)(Cc1cccnc1)P(=O)(O)O — outcome as called in the assay?
Output: false (0)

Task: Lab log entry: CC(C)OC(=O)OCOP(=O)(CO[C@H](C)Cn1cnc2c(N)ncnc21)OCOC(=O)OC(C)C — outcome as called in the assay?
Output: false (0)

Task: Lab log entry: O=NN(CCCl)C(=O)NC1CCCCC1 — outcome as called in the assay?
Output: false (0)
